Numbers sourced from patent US20070082870A1.

Test: physchem
Assay type: physicochemical
Details: 23 °C, pH 1.2, aqueous with cosolvent or surfactant or cyclodextrin, thermodynamic from solid, Sw (solubility with CD)

| COMPOUND | solubility, mg/mL |
| --- | --- |
| C[C@@H](c1ncncc1F)[C@](O)(Cn1cncn1)c1ccc(F)cc1F (single isomer, unassigned) | 10.2 |
